# MEASUREMENT_PROTOCOL: in vivo pharmacokinetics in mice
# RUN_CONDITIONS: mouse, plasma, oral, 200 mg/kg; estimated from p.o. and IV data
PROPERTY_LABEL: bioavailability

Endpoint output: bioavailability of O=C(O)c1cccc(Nc2cc(N3CCCCCC3)c3noc4c3c2C(=O)c2ccccc2-4)c1 . Value?
~4%

====

# MEASUREMENT_PROTOCOL: in vivo pharmacokinetics in mice
# RUN_CONDITIONS: mouse, plasma, po; 200 mg/kg p.o.; read-out: Cmax
PROPERTY_LABEL: Cmax
Note: a bare number is incomplete; add the unit.

Look at this compound and give its reported Cmax. O=C(O)c1cccc(Nc2cc(N3CCCCCC3)c3noc4c3c2C(=O)c2ccccc2-4)c1
2600 ng/mL
